Each entry below carries its reported FACS-Seq fitted mean (log10).
B1: library; a variant is named by its letters at N, in order (parent)
chain: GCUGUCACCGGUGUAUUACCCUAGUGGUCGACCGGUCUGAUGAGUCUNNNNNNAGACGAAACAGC

variants of: B1; assay: FACS-Seq fitted mean relative fluorescence mCherry/BFP without ligand (log10 relative fluorescence); ligand: hypoxanthine (xanthine aptamer); higher = higher reporter protein expression; conditions: HEK293T, ligand present: no
measured.quantity: FACS-Seq fitted mean (log10)

[[record]]
residues = "GCUGUCACCGGUGUAUUACCCUAGUGGUCGACCGGUCUGAUGAGUCUAUAGCAAGACGAAACAGC [AUAGCA]"
measured_quantity = "FACS-Seq fitted mean (log10)"
recorded_number = 0.241

[[record]]
residues = "GCUGUCACCGGUGUAUUACCCUAGUGGUCGACCGGUCUGAUGAGUCUGGGCAGAGACGAAACAGC [GGGCAG]"
measured_quantity = "FACS-Seq fitted mean (log10)"
recorded_number = 0.0036

[[record]]
residues = "GCUGUCACCGGUGUAUUACCCUAGUGGUCGACCGGUCUGAUGAGUCUAGCUGCAGACGAAACAGC [AGCUGC]"
measured_quantity = "FACS-Seq fitted mean (log10)"
recorded_number = 0.448

[[record]]
residues = "GCUGUCACCGGUGUAUUACCCUAGUGGUCGACCGGUCUGAUGAGUCUAUGUUUAGACGAAACAGC [AUGUUU]"
measured_quantity = "FACS-Seq fitted mean (log10)"
recorded_number = 0.564

[[record]]
residues = "GCUGUCACCGGUGUAUUACCCUAGUGGUCGACCGGUCUGAUGAGUCUAAUCUAAGACGAAACAGC [AAUCUA]"
measured_quantity = "FACS-Seq fitted mean (log10)"
recorded_number = 0.651

[[record]]
residues = "GCUGUCACCGGUGUAUUACCCUAGUGGUCGACCGGUCUGAUGAGUCUGAGGACAGACGAAACAGC [GAGGAC]"
measured_quantity = "FACS-Seq fitted mean (log10)"
recorded_number = 0.178

[[record]]
residues = "GCUGUCACCGGUGUAUUACCCUAGUGGUCGACCGGUCUGAUGAGUCUUACGGGAGACGAAACAGC [UACGGG]"
measured_quantity = "FACS-Seq fitted mean (log10)"
recorded_number = 0.0501

[[record]]
residues = "GCUGUCACCGGUGUAUUACCCUAGUGGUCGACCGGUCUGAUGAGUCUCAUGGUAGACGAAACAGC [CAUGGU]"
measured_quantity = "FACS-Seq fitted mean (log10)"
recorded_number = 0.331

[[record]]
residues = "GCUGUCACCGGUGUAUUACCCUAGUGGUCGACCGGUCUGAUGAGUCUUAUGUCAGACGAAACAGC [UAUGUC]"
measured_quantity = "FACS-Seq fitted mean (log10)"
recorded_number = -0.423

[[record]]
residues = "GCUGUCACCGGUGUAUUACCCUAGUGGUCGACCGGUCUGAUGAGUCUAUACUGAGACGAAACAGC [AUACUG]"
measured_quantity = "FACS-Seq fitted mean (log10)"
recorded_number = 0.294

[[record]]
residues = "GCUGUCACCGGUGUAUUACCCUAGUGGUCGACCGGUCUGAUGAGUCUACUAAAAGACGAAACAGC [ACUAAA]"
measured_quantity = "FACS-Seq fitted mean (log10)"
recorded_number = 0.324

[[record]]
residues = "GCUGUCACCGGUGUAUUACCCUAGUGGUCGACCGGUCUGAUGAGUCUCAACAUAGACGAAACAGC [CAACAU]"
measured_quantity = "FACS-Seq fitted mean (log10)"
recorded_number = 0.722

[[record]]
residues = "GCUGUCACCGGUGUAUUACCCUAGUGGUCGACCGGUCUGAUGAGUCUAACCCAAGACGAAACAGC [AACCCA]"
measured_quantity = "FACS-Seq fitted mean (log10)"
recorded_number = 0.217

[[record]]
residues = "GCUGUCACCGGUGUAUUACCCUAGUGGUCGACCGGUCUGAUGAGUCUGAGGCAAGACGAAACAGC [GAGGCA]"
measured_quantity = "FACS-Seq fitted mean (log10)"
recorded_number = 0.306

[[record]]
residues = "GCUGUCACCGGUGUAUUACCCUAGUGGUCGACCGGUCUGAUGAGUCUAGACAGAGACGAAACAGC [AGACAG]"
measured_quantity = "FACS-Seq fitted mean (log10)"
recorded_number = 0.418

[[record]]
residues = "GCUGUCACCGGUGUAUUACCCUAGUGGUCGACCGGUCUGAUGAGUCUGGUAAGAGACGAAACAGC [GGUAAG]"
measured_quantity = "FACS-Seq fitted mean (log10)"
recorded_number = 0.176

[[record]]
residues = "GCUGUCACCGGUGUAUUACCCUAGUGGUCGACCGGUCUGAUGAGUCUGGAAGCAGACGAAACAGC [GGAAGC]"
measured_quantity = "FACS-Seq fitted mean (log10)"
recorded_number = 0.167

[[record]]
residues = "GCUGUCACCGGUGUAUUACCCUAGUGGUCGACCGGUCUGAUGAGUCUUGCGGCAGACGAAACAGC [UGCGGC]"
measured_quantity = "FACS-Seq fitted mean (log10)"
recorded_number = 0.67

[[record]]
residues = "GCUGUCACCGGUGUAUUACCCUAGUGGUCGACCGGUCUGAUGAGUCUGCAGAGAGACGAAACAGC [GCAGAG]"
measured_quantity = "FACS-Seq fitted mean (log10)"
recorded_number = 0.0952

[[record]]
residues = "GCUGUCACCGGUGUAUUACCCUAGUGGUCGACCGGUCUGAUGAGUCUAGAUACAGACGAAACAGC [AGAUAC]"
measured_quantity = "FACS-Seq fitted mean (log10)"
recorded_number = 0.757

[[record]]
residues = "GCUGUCACCGGUGUAUUACCCUAGUGGUCGACCGGUCUGAUGAGUCUGGUAAAAGACGAAACAGC [GGUAAA]"
measured_quantity = "FACS-Seq fitted mean (log10)"
recorded_number = 0.652

[[record]]
residues = "GCUGUCACCGGUGUAUUACCCUAGUGGUCGACCGGUCUGAUGAGUCUCUAUUCAGACGAAACAGC [CUAUUC]"
measured_quantity = "FACS-Seq fitted mean (log10)"
recorded_number = 0.832

[[record]]
residues = "GCUGUCACCGGUGUAUUACCCUAGUGGUCGACCGGUCUGAUGAGUCUAUUAAGAGACGAAACAGC [AUUAAG]"
measured_quantity = "FACS-Seq fitted mean (log10)"
recorded_number = 0.351

[[record]]
residues = "GCUGUCACCGGUGUAUUACCCUAGUGGUCGACCGGUCUGAUGAGUCUUAGAGGAGACGAAACAGC [UAGAGG]"
measured_quantity = "FACS-Seq fitted mean (log10)"
recorded_number = 0.0918

[[record]]
residues = "GCUGUCACCGGUGUAUUACCCUAGUGGUCGACCGGUCUGAUGAGUCUCGGGUAAGACGAAACAGC [CGGGUA]"
measured_quantity = "FACS-Seq fitted mean (log10)"
recorded_number = 0.436

[[record]]
residues = "GCUGUCACCGGUGUAUUACCCUAGUGGUCGACCGGUCUGAUGAGUCUGUAGGUAGACGAAACAGC [GUAGGU]"
measured_quantity = "FACS-Seq fitted mean (log10)"
recorded_number = 0.515

[[record]]
residues = "GCUGUCACCGGUGUAUUACCCUAGUGGUCGACCGGUCUGAUGAGUCUAGAGAAAGACGAAACAGC [AGAGAA]"
measured_quantity = "FACS-Seq fitted mean (log10)"
recorded_number = 0.479

[[record]]
residues = "GCUGUCACCGGUGUAUUACCCUAGUGGUCGACCGGUCUGAUGAGUCUUCCGAGAGACGAAACAGC [UCCGAG]"
measured_quantity = "FACS-Seq fitted mean (log10)"
recorded_number = 0.318

[[record]]
residues = "GCUGUCACCGGUGUAUUACCCUAGUGGUCGACCGGUCUGAUGAGUCUCUUGAUAGACGAAACAGC [CUUGAU]"
measured_quantity = "FACS-Seq fitted mean (log10)"
recorded_number = -0.553

[[record]]
residues = "GCUGUCACCGGUGUAUUACCCUAGUGGUCGACCGGUCUGAUGAGUCUGUACGUAGACGAAACAGC [GUACGU]"
measured_quantity = "FACS-Seq fitted mean (log10)"
recorded_number = 0.418

[[record]]
residues = "GCUGUCACCGGUGUAUUACCCUAGUGGUCGACCGGUCUGAUGAGUCUAGGAAAAGACGAAACAGC [AGGAAA]"
measured_quantity = "FACS-Seq fitted mean (log10)"
recorded_number = 0.102

[[record]]
residues = "GCUGUCACCGGUGUAUUACCCUAGUGGUCGACCGGUCUGAUGAGUCUUUCUCGAGACGAAACAGC [UUCUCG]"
measured_quantity = "FACS-Seq fitted mean (log10)"
recorded_number = 0.24

[[record]]
residues = "GCUGUCACCGGUGUAUUACCCUAGUGGUCGACCGGUCUGAUGAGUCUGUGGAUAGACGAAACAGC [GUGGAU]"
measured_quantity = "FACS-Seq fitted mean (log10)"
recorded_number = 0.303

[[record]]
residues = "GCUGUCACCGGUGUAUUACCCUAGUGGUCGACCGGUCUGAUGAGUCUCGCUGCAGACGAAACAGC [CGCUGC]"
measured_quantity = "FACS-Seq fitted mean (log10)"
recorded_number = 0.163

[[record]]
residues = "GCUGUCACCGGUGUAUUACCCUAGUGGUCGACCGGUCUGAUGAGUCUCUUCGAAGACGAAACAGC [CUUCGA]"
measured_quantity = "FACS-Seq fitted mean (log10)"
recorded_number = -0.0248

[[record]]
residues = "GCUGUCACCGGUGUAUUACCCUAGUGGUCGACCGGUCUGAUGAGUCUCGUACAAGACGAAACAGC [CGUACA]"
measured_quantity = "FACS-Seq fitted mean (log10)"
recorded_number = 0.575

[[record]]
residues = "GCUGUCACCGGUGUAUUACCCUAGUGGUCGACCGGUCUGAUGAGUCUUAGAACAGACGAAACAGC [UAGAAC]"
measured_quantity = "FACS-Seq fitted mean (log10)"
recorded_number = 0.437

[[record]]
residues = "GCUGUCACCGGUGUAUUACCCUAGUGGUCGACCGGUCUGAUGAGUCUGGGAGGAGACGAAACAGC [GGGAGG]"
measured_quantity = "FACS-Seq fitted mean (log10)"
recorded_number = 0.0166

[[record]]
residues = "GCUGUCACCGGUGUAUUACCCUAGUGGUCGACCGGUCUGAUGAGUCUGUAUACAGACGAAACAGC [GUAUAC]"
measured_quantity = "FACS-Seq fitted mean (log10)"
recorded_number = 0.143

[[record]]
residues = "GCUGUCACCGGUGUAUUACCCUAGUGGUCGACCGGUCUGAUGAGUCUAUAUGGAGACGAAACAGC [AUAUGG]"
measured_quantity = "FACS-Seq fitted mean (log10)"
recorded_number = -0.462

[[record]]
residues = "GCUGUCACCGGUGUAUUACCCUAGUGGUCGACCGGUCUGAUGAGUCUCCGGAAAGACGAAACAGC [CCGGAA]"
measured_quantity = "FACS-Seq fitted mean (log10)"
recorded_number = 0.279

[[record]]
residues = "GCUGUCACCGGUGUAUUACCCUAGUGGUCGACCGGUCUGAUGAGUCUCGGUUCAGACGAAACAGC [CGGUUC]"
measured_quantity = "FACS-Seq fitted mean (log10)"
recorded_number = 0.133

[[record]]
residues = "GCUGUCACCGGUGUAUUACCCUAGUGGUCGACCGGUCUGAUGAGUCUACAUAGAGACGAAACAGC [ACAUAG]"
measured_quantity = "FACS-Seq fitted mean (log10)"
recorded_number = 0.305

[[record]]
residues = "GCUGUCACCGGUGUAUUACCCUAGUGGUCGACCGGUCUGAUGAGUCUGACUGAAGACGAAACAGC [GACUGA]"
measured_quantity = "FACS-Seq fitted mean (log10)"
recorded_number = 0.742

[[record]]
residues = "GCUGUCACCGGUGUAUUACCCUAGUGGUCGACCGGUCUGAUGAGUCUAGUUGCAGACGAAACAGC [AGUUGC]"
measured_quantity = "FACS-Seq fitted mean (log10)"
recorded_number = 0.226

[[record]]
residues = "GCUGUCACCGGUGUAUUACCCUAGUGGUCGACCGGUCUGAUGAGUCUAAGUGGAGACGAAACAGC [AAGUGG]"
measured_quantity = "FACS-Seq fitted mean (log10)"
recorded_number = 0.227

